Cited source for all entries: patent US20240246968A1

System: MIA PaCa-2 cells
Assay: Growth inhibition activity on KRAS-G12C mutant cell line (MIA PaCa-2), CellTiter-Glo 3D
Format: cell-based, human
Conditions: MIA PaCa-2, 3-day culture with compound
# Lookup of reported IC50 keyed by entry
Write the value in nM as a bare number.

Use the examples below as a reference point.
compound="Cc1nc2c(Cl)c(-c3cccn4c(C(=O)c5cc(F)c(NC(=O)/C=C/CNC(C)(C)C)c(F)c5)ccc34)c(C(F)(F)F)cc2n1C (single isomer, unassigned) [Example 56-1]" value_measured=1100
compound="COc1c(-c2cccn3c(C(=O)c4cc(F)c(NC(=O)/C=C/CNC5CCOCC5)c(F)c4)ccc23)c(C(F)(F)F)cc2c1nc(C)n2C (single isomer, unassigned) [Example 61-2]" value_measured=10
compound="COc1c(-c2cccn3c(C(=O)c4cc(F)c(NC(=O)/C=C/CN[C@H]5CC[C@H](OC)CC5)c(F)c4)cnc23)c(C(F)(F)F)cc2c1nc(C)n2C (single isomer, unassigned) [Example 83-1]" value_measured=16

Consider the record given below.
## Task Which measured IC50 value corresponds to CO[C@H](C)c1nc2c(Cl)c(-c3cccn4c(C(=O)c5cc(F)c(NC(=O)/C=C/CNC(C)(C)C)c(F)c5)ccc34)c(C)cc2n1C (single isomer, unassigned) [Example 49] ?
## Result 49

###

Molecular target: interaction between recombinant K-Ras4B G12C mutant protein and cRAF RAS-binding domain (cRAF-RBD) (Homo sapiens, UniProt P01116, G12C)
Sequence (P01116 with tags, fused parts or gaps isoform P01116-2 G12C): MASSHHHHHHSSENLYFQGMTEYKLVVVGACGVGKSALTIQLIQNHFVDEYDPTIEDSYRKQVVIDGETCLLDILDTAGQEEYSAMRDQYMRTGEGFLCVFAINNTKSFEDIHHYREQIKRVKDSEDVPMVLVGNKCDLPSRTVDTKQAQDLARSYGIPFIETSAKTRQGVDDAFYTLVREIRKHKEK
Test: Inhibitory activity on interaction between KRAS G12C and cRAF (Alpha technology)
Conditions: GMPPNP-bound KRAS G12C incubated with compound at 25° C. for 1 hour, then cRAF-RBD; Alpha signal
# Lookup of reported pIC50 keyed by entry
Interpret pIC50 as the negative base-10 log of the concentration measured in mol/L.

## Task Which measured pIC50 value corresponds to "CO[C@H]1CC[C@H](NC/C=C/C(=O)Nc2c(F)cc(C(=O)c3ccc4c(-c5c(Br)cc6c(nc(C)n6C)c5Cl)cccn34)cc2F)CC1" ?
## Result 7.21

## Task Which measured pIC50 value corresponds to Cc1nc2cc(-c3cccn4c(C(=O)c5cc(F)c(NC(=O)/C=C/CNC6CCCOC6)c(F)c5)ccc34)c(C(F)(F)F)cc2n1C (centres unmarked) ?
## Result 7.29

## Task Which measured pIC50 value corresponds to COc1c(-c2cccn3c(C(=O)c4cc(F)c(NC(=O)/C=C/CN[C@H]5CC[C@H](OC)CC5)c(F)c4)ccc23)c(C(F)(F)F)cc2c1nc(C)n2C (single isomer, unassigned) [Example 60-2] ?
## Result 7.59

## Task Which measured pIC50 value corresponds to "Cc1cc2c(nc(CC(N)=O)n2C)c(Cl)c1-c1cccn2c(C(=O)c3cc(F)c(NC(=O)/C=C/CNC(C)(C)C)c(F)c3)ccc12" ?
## Result 7.14

## Task Which measured pIC50 value corresponds to CO[C@H]1CC[C@H](NC/C=C/C(=O)Nc2c(F)cc(C(=O)c3ccc4c(-c5c(C)cc6c(ncn6C)c5Cl)cccn34)cc2F)CC1 (single isomer, unassigned) [Example 12-1] ?
## Result 7.54

###

Tested on: MIA PaCa-2 cells
Experiment: Growth inhibition activity on KRAS-G12C mutant cell line (MIA PaCa-2), CellTiter-Glo 3D
Type: cell-based, human
Settings: Homo sapiens, MIA PaCa-2, 72 h, MIA PaCa-2, 3-day culture with compound
assay_metric: IC50 (nM)
Write the value in nM as a bare number.

compound="COc1cc2c(nc(C)n2C)c(F)c1-c1cccn2c(C(=O)c3cc(F)c(NC(=O)/C=C/CNC(C)(C)C)c(F)c3)ccc12 [Example 46]" value_measured=24
compound="COc1nc2c(cc1-c1cccn3c(C(=O)c4cc(F)c(NC(=O)/C=C/CN[C@H]5CC[C@H](OC)CC5)c(F)c4)ccc13)nc(C)n2C [Example 33]" value_measured=140
compound="CO[C@H]1CC[C@H](NC/C=C/C(=O)Nc2c(F)cc(C(=O)c3c[nH]c4c(-c5cc6nc(C)n(C)c6cc5C(F)(F)F)cccc34)cc2F)CC1 [Example 45]" value_measured=67

Consider the record given below.
## Task Which measured IC50 value corresponds to CCCc1cc(C(=O)c2cc(F)c(NC(=O)/C=C/CN[C@H]3CC[C@H](OC)CC3)c(F)c2)n2cccc(-c3c(C)cc4c(nc(C)n4C)c3Cl)c12 [Example 97] ?
## Result 320

###

Target: interaction between recombinant K-Ras4B G12C mutant protein and cRAF RAS-binding domain (cRAF-RBD) (Homo sapiens, UniProt P01116, G12C)
Test: Inhibitory activity on interaction between KRAS G12C and cRAF (Alpha technology)
Conditions: GMPPNP-bound KRAS G12C incubated with compound at 25° C. for 1 hour, then cRAF-RBD; Alpha signal
pIC50: −log10 of the molar value.
Mark criterion not met for pIC50 values under 7, and criterion met for everything at or above.

The examples below pair each entry with its known result.
molecule=Cc1nc2cc(-c3cccn4c(C(=O)c5cc(F)c(NC(=O)/C=C/CN[C@H]6CC[C@H](O)CC6)c(F)c5)ccc34)c(C(F)(F)F)cc2n1C category_label="criterion met"
molecule="CO[C@H](C)c1nc2c(Cl)c(-c3cccn4c(C(=O)c5cc(F)c(NC(=O)/C=C/CNC(C)(C)C)c(F)c5)ccc34)c(C)cc2n1C (single isomer, unassigned) [Example 50]" category_label="criterion not met"
molecule=COCc1cc(C(=O)c2cc(F)c(NC(=O)/C=C/CN[C@H]3CC[C@H](OC)CC3)c(F)c2)n2cccc(-c3c(C)cc4c(nc(C)n4C)c3Cl)c12 category_label="criterion met"
molecule=CCc1cc2c(nc(C)n2C)c(Cl)c1-c1cccn2c(C(=O)c3cc(F)c(NC(=O)/C=C/CNC4CCOCC4)c(F)c3)ccc12 category_label="criterion met"

Next:
## Task pIC50 >= 7 for COc1c(-c2cccn3c(C(=O)c4cc(F)c(NC(=O)/C=C/CNC(C)(C)C)c(F)c4)ccc23)c(C)cc2c1nc(C)n2C (single isomer, unassigned) [Example 40-1] ?
## Result criterion not met
